# TESTED SYSTEM: UniProt:Q06710
# Sequence (Q06710 whole entry): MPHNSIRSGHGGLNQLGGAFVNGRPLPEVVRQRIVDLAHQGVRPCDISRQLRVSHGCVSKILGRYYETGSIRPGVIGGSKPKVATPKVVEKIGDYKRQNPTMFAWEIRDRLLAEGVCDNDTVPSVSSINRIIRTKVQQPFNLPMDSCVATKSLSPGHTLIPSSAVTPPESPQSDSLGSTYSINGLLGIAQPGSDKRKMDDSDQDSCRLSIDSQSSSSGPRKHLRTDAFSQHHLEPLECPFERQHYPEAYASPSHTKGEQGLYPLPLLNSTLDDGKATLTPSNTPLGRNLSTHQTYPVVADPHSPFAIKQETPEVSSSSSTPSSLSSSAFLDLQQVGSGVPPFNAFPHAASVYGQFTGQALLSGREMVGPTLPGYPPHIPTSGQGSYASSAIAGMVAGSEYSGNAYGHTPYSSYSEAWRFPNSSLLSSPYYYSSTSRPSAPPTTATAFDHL
# PROTOCOL NOTES: inhibitors of PAX8-driven TPO luciferase reporter, dose response, RMG-I cells, cherry-pick (AID 687027);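 further: luciferase reporter driven by Pax8 target thyroperoxidase promoter measured by SteadyGlo luminescence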
# Assay type: functional, cell-based
The source made the active and inactive calls. How the calls were made is not given here.
OBSERVATION TYPE: AC50

Recorded results for 2 compounds are shown here.
For `O=C(C[C@@H]1CC[C@@H]2[C@H](COC[C@@H](O)CN2C(=O)Nc2ccc(Cl)c(Cl)c2)O1)NCc1ccc(Cl)cc1` , what is its reported AC50? 8.87 µM (active)

What value of AC50 has been reported for the following compound? `CN(C)CCN(C(=O)/C=C/c1cccs1)c1nc2c(F)cc(F)cc2s1` 8.86 µM (active)

// next entry
Quick one: AC50 for `C[C@H](O)C#Cc1ccc2c(c1)O[C@@H](CN(C)Cc1ccc(-c3ccccc3)cc1)[C@H](C)CN([C@H](C)CO)S2(=O)=O` ? 5.27 µM (active)
